system: KYSE-70 (Esophageal Squamous Cell Carcinoma); experiment: Bliss excess, mean over the matrix (fraction); higher = more synergy;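 also: after 72 h of two-drug dosing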
observed-property: Bliss excess
Form rule: numeric answer, no unit written next to it.

Answered cases to consult:
Could you tell me which Bliss excess is on file for Cc1c2c(nn1C)CSCc1cc(n(C)n1)CSc1cc(c3ccccc3c1)OCCCc1c(C(=O)O)n(C)c3c-2c(Cl)ccc13 [AZD5991] + C=CCn1c(=O)c2cnc(Nc3ccc(N4CCN(C)CC4)cc3)nc2n1-c1cccc(C(C)(C)O)n1 [AZD1775] (first compound max 1 µM, partner max 1 µM) ?
0.015

Could you tell me which Bliss excess is on file for COc1cc2ncnc(Nc3ccc(F)c(Cl)c3)c2cc1OCCCN1CCOCC1 [Gefitinib] + CC(C)n1c(=O)n(C)c2cnc3cc(F)c(-c4ccc(OCCCN5CCCCC5)nc4)cc3c21 [AZD1390] (first compound max 10 µM, 7x7, partner max 0.3 µM) ?
-0.038

Could you tell me which Bliss excess is on file for COc1cccc2c1C(=O)c1c(O)c3c(c(O)c1C2=O)C[C@@](O)(C(=O)CO)C[C@@H]3O[C@H]1C[C@H](N)[C@H](O)[C@H](C)O1 [Doxorubicin] + Cc1cc2ncnn2cc1Nc1ncc2c(n1)n(C1CCOCC1)c(=O)n2C [AZD7648] (first compound max 1 µM, 7x7, partner max 10 µM) ?
0.0271

Note: attention shifts to another entry.
Could you tell me which Bliss excess is on file for N#Cc1cnc(Nc2cc(NC[C@H]3CNCCO3)c(C(F)(F)F)cn2)cn1 [SRA737] + O=c1[nH]cc(F)c(=O)[nH]1 [5-Fluorouracil] (first compound max 10 µM, 7x7, partner max 20 µM) ?
-0.0214
